Data provenance: patent US20110158985A1

Target: Bac-F (respiratory syncytial virus)
Sequence (P03420 26-524): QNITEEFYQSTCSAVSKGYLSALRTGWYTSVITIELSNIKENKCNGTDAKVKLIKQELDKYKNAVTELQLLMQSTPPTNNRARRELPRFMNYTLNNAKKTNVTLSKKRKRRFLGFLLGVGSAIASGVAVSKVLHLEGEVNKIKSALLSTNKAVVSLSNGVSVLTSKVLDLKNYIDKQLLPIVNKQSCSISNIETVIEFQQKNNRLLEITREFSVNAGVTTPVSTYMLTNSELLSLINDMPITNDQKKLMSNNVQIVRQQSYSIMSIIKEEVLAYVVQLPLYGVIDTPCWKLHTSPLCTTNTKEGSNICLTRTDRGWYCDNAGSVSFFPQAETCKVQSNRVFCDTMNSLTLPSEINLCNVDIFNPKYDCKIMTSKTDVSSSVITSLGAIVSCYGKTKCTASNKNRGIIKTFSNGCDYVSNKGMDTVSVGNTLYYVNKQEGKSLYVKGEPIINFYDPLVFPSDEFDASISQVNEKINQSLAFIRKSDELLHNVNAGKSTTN
Test: SPR (BIAcore), mAb vs Bac-F (1:1)
# Kd values compiled below

>>> result("A1e9 IgG (antibody, V domains shown, also called Ale9) VH: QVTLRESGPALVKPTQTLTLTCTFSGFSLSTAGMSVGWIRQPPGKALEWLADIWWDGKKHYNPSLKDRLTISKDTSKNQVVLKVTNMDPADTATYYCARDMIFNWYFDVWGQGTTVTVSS VL: DIQMTQSPSTLSASVGDRVTITCSLSSRVGYMHWYQQKPGKAPKLLIYDTFKLSSGVPSRFSGSGSGTEFTLTISSLQPDDFATYYCFQGSGYPFTFGGGTKVEIKR")
"330 pM"

So what's the measured Kd for this one? P12f4 IgG (antibody, V domains shown) VH: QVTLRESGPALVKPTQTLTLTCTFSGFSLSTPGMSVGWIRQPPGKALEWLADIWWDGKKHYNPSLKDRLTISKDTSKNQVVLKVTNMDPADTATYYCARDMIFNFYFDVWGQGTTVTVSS VL: DIQMTQSPSTLSASVGDRVTITCSLSSRVGYMHWYQQKPGKAPKLLIYDTRGLPSGVPSRFSGSGSGTEFTLTISSLQPDDFATYYCFQGSGYPFTFGGGTKVEIKR 110 pM

// repeat for A8c7 IgG (antibody, V domains shown) VH: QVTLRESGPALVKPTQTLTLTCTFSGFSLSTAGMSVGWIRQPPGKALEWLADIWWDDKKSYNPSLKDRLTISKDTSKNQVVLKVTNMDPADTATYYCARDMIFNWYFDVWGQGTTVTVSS VL: DIQMTQSPSTLSASVGDRVTITCSPSSRVGYMHWYQQKPGKAPKLLIYDTRYQSSGVPSRFSGSGSGTEFTLTISSLQPDDFATYYCFQGSGYPFTFGGGTKVEIKR and report 210 pM
